Each entry below carries its reported Biodistribution of radioactivity, Spleen.
- EXPERIMENT_NOTES: In vivo radioactivity biodistribution experiment in normal mice (Example 1, Table 13)
- Set-up: species or system ddY mice
- EXPERIMENTAL_CONDITIONS: spleen, 2 min after injection

O=C1/C(=C/c2ccc(O)cc2)Oc2ccc([125I])cc21 [[^125I]20]; 2.18 (0.48) % injected dose per gram
CNc1ccc(/C=C2\Oc3ccc([125I])cc3C2=O)cc1 [[^125I]12]; 2.37 (0.41) % injected dose per gram
CN(C)c1ccc(/C=C2\Oc3ccc([125I])cc3C2=O)cc1 [[^125I]7]; 1.76 (0.28) % injected dose per gram
Nc1ccc(/C=C2\Oc3ccc([125I])cc3C2=O)cc1 [[^125I]14]; 2.29 (0.36) % injected dose per gram

Consider the additional compound presented here.
Exam item: Given COc1ccc(/C=C2\Oc3ccc([125I])cc3C2=O)cc1 [[^125I]17] , state its recorded Biodistribution of radioactivity, Spleen.
Marked response: 1.45 (0.56) % injected dose per gram

====

- EXPERIMENT_NOTES: In vivo radioactivity biodistribution experiment in normal mice (Example 1, Table 13)
- Set-up: species or system ddY mice
- EXPERIMENTAL_CONDITIONS: intestine, 30 min after injection
MEASUREMENT_TYPE: Biodistribution of radioactivity, Intestine

Sample answers from the record:
CNc1ccc(/C=C2\Oc3ccc([125I])cc3C2=O)cc1 [[^125I]12]; 10.34 (4.91) % injected dose per gram
Nc1ccc(/C=C2\Oc3ccc([125I])cc3C2=O)cc1 [[^125I]14]; 15.47 (5.48) % injected dose per gram
CN(C)c1ccc(/C=C2\Oc3ccc([125I])cc3C2=O)cc1 [[^125I]7]; 9.50 (1.45) % injected dose per gram
O=C1/C(=C/c2ccc(O)cc2)Oc2ccc([125I])cc21 [[^125I]20]; 12.67 (2.13) % injected dose per gram

Consider the additional molecule presented here.
Exam item: Given COc1ccc(/C=C2\Oc3ccc([125I])cc3C2=O)cc1 [[^125I]17] , state its recorded Biodistribution of radioactivity, Intestine.
Marked response: 11.67 (3.56) % injected dose per gram

====

Each entry below carries its reported Biodistribution of radioactivity, Spleen.
- EXPERIMENT_NOTES: In vivo radioactivity biodistribution experiment in normal mice (Example 1, Table 13)
- Set-up: species or system ddY mice
- EXPERIMENTAL_CONDITIONS: spleen, 10 min after injection

Exam item: Given Nc1ccc(/C=C2\Oc3ccc([125I])cc3C2=O)cc1 [[^125I]14] , state its recorded Biodistribution of radioactivity, Spleen.
Marked response: 1.64 (0.29) % injected dose per gram

Exam item: Given COc1ccc(/C=C2\Oc3ccc([125I])cc3C2=O)cc1 [[^125I]17] , state its recorded Biodistribution of radioactivity, Spleen.
Marked response: 0.74 (0.10) % injected dose per gram

====

- EXPERIMENT_NOTES: In vivo radioactivity biodistribution experiment in normal mice (Example 1, Table 13)
- Parameters: species or system ddY mice
- EXPERIMENTAL_CONDITIONS: liver, 2 min after injection
MEASUREMENT_TYPE: Biodistribution of radioactivity, Liver

Sample answers from the record:
O=C1/C(=C/c2ccc(O)cc2)Oc2ccc([125I])cc21 [[^125I]20]; 6.05 (1.49) % injected dose per gram
Nc1ccc(/C=C2\Oc3ccc([125I])cc3C2=O)cc1 [[^125I]14]; 9.17 (3.45) % injected dose per gram
CNc1ccc(/C=C2\Oc3ccc([125I])cc3C2=O)cc1 [[^125I]12]; 11.26 (2.81) % injected dose per gram
COc1ccc(/C=C2\Oc3ccc([125I])cc3C2=O)cc1 [[^125I]17]; 6.87 (2.18) % injected dose per gram

Consider the additional compound presented here.
Exam item: Given CN(C)c1ccc(/C=C2\Oc3ccc([125I])cc3C2=O)cc1 [[^125I]7] , state its recorded Biodistribution of radioactivity, Liver.
Marked response: 10.21 (1.87) % injected dose per gram

====

- EXPERIMENT_NOTES: In vivo radioactivity biodistribution experiment in normal mice (Example 1, Table 13)
- Parameters: species or system ddY mice
- EXPERIMENTAL_CONDITIONS: liver, 60 min after injection
MEASUREMENT_TYPE: Biodistribution of radioactivity, Liver

Sample answers from the record:
COc1ccc(/C=C2\Oc3ccc([125I])cc3C2=O)cc1 [[^125I]17]; 1.86 (0.83) % injected dose per gram
CN(C)c1ccc(/C=C2\Oc3ccc([125I])cc3C2=O)cc1 [[^125I]7]; 4.33 (0.76) % injected dose per gram
CNc1ccc(/C=C2\Oc3ccc([125I])cc3C2=O)cc1 [[^125I]12]; 4.91 (0.72) % injected dose per gram
O=C1/C(=C/c2ccc(O)cc2)Oc2ccc([125I])cc21 [[^125I]20]; 4.45 (3.14) % injected dose per gram

Consider the additional compound presented here.
Exam item: Given Nc1ccc(/C=C2\Oc3ccc([125I])cc3C2=O)cc1 [[^125I]14] , state its recorded Biodistribution of radioactivity, Liver.
Marked response: 5.85 (1.09) % injected dose per gram

====

- EXPERIMENT_NOTES: In vivo radioactivity biodistribution experiment in normal mice (Example 1, Table 13)
- Parameters: species or system ddY mice
- EXPERIMENTAL_CONDITIONS: spleen, 60 min after injection
MEASUREMENT_TYPE: Biodistribution of radioactivity, Spleen

Sample answers from the record:
COc1ccc(/C=C2\Oc3ccc([125I])cc3C2=O)cc1 [[^125I]17]; 0.43 (0.14) % injected dose per gram
CN(C)c1ccc(/C=C2\Oc3ccc([125I])cc3C2=O)cc1 [[^125I]7]; 0.37 (0.11) % injected dose per gram
CNc1ccc(/C=C2\Oc3ccc([125I])cc3C2=O)cc1 [[^125I]12]; 0.75 (0.17) % injected dose per gram

Exam item: Given Nc1ccc(/C=C2\Oc3ccc([125I])cc3C2=O)cc1 [[^125I]14] , state its recorded Biodistribution of radioactivity, Spleen.
Marked response: 0.92 (0.07) % injected dose per gram

Exam item: Given O=C1/C(=C/c2ccc(O)cc2)Oc2ccc([125I])cc21 [[^125I]20] , state its recorded Biodistribution of radioactivity, Spleen.
Marked response: 0.42 (0.02) % injected dose per gram

====

- EXPERIMENT_NOTES: In vivo radioactivity biodistribution experiment in normal mice (Example 1, Table 13)
- Parameters: species or system ddY mice
- EXPERIMENTAL_CONDITIONS: kidney, 30 min after injection
MEASUREMENT_TYPE: Biodistribution of radioactivity, Kidney

Nc1ccc(/C=C2\Oc3ccc([125I])cc3C2=O)cc1 [[^125I]14]; 12.05 (5.44) % injected dose per gram
COc1ccc(/C=C2\Oc3ccc([125I])cc3C2=O)cc1 [[^125I]17]; 4.93 (1.52) % injected dose per gram
O=C1/C(=C/c2ccc(O)cc2)Oc2ccc([125I])cc21 [[^125I]20]; 5.82 (1.11) % injected dose per gram
CNc1ccc(/C=C2\Oc3ccc([125I])cc3C2=O)cc1 [[^125I]12]; 6.00 (2.14) % injected dose per gram

Consider the additional molecule presented here.
Exam item: Given CN(C)c1ccc(/C=C2\Oc3ccc([125I])cc3C2=O)cc1 [[^125I]7] , state its recorded Biodistribution of radioactivity, Kidney.
Marked response: 10.37 (2.34) % injected dose per gram

====

- EXPERIMENT_NOTES: In vivo radioactivity biodistribution experiment in normal mice (Example 1, Table 13)
- Set-up: species or system ddY mice
- EXPERIMENTAL_CONDITIONS: brain, 60 min after injection
Each entry below carries its reported Biodistribution of radioactivity, Brain.

CN(C)c1ccc(/C=C2\Oc3ccc([125I])cc3C2=O)cc1 [[^125I]7]; 0.11 (0.03) % injected dose per gram

Exam item: Given CNc1ccc(/C=C2\Oc3ccc([125I])cc3C2=O)cc1 [[^125I]12] , state its recorded Biodistribution of radioactivity, Brain.
Marked response: 0.24 (0.05) % injected dose per gram

Exam item: Given O=C1/C(=C/c2ccc(O)cc2)Oc2ccc([125I])cc21 [[^125I]20] , state its recorded Biodistribution of radioactivity, Brain.
Marked response: 0.14 (0.12) % injected dose per gram

Exam item: Given Nc1ccc(/C=C2\Oc3ccc([125I])cc3C2=O)cc1 [[^125I]14] , state its recorded Biodistribution of radioactivity, Brain.
Marked response: 0.26 (0.03) % injected dose per gram

Exam item: Given COc1ccc(/C=C2\Oc3ccc([125I])cc3C2=O)cc1 [[^125I]17] , state its recorded Biodistribution of radioactivity, Brain.
Marked response: 0.03 (0.02) % injected dose per gram

====

- EXPERIMENT_NOTES: In vivo radioactivity biodistribution experiment in normal mice (Example 1, Table 13)
- Design: species or system ddY mice
- EXPERIMENTAL_CONDITIONS: kidney, 2 min after injection
MEASUREMENT_TYPE: Biodistribution of radioactivity, Kidney

Exam item: Given Nc1ccc(/C=C2\Oc3ccc([125I])cc3C2=O)cc1 [[^125I]14] , state its recorded Biodistribution of radioactivity, Kidney.
Marked response: 10.87 (2.95) % injected dose per gram

Exam item: Given CN(C)c1ccc(/C=C2\Oc3ccc([125I])cc3C2=O)cc1 [[^125I]7] , state its recorded Biodistribution of radioactivity, Kidney.
Marked response: 7.84 (1.92) % injected dose per gram

Exam item: Given COc1ccc(/C=C2\Oc3ccc([125I])cc3C2=O)cc1 [[^125I]17] , state its recorded Biodistribution of radioactivity, Kidney.
Marked response: 7.26 (2.18) % injected dose per gram

Exam item: Given CNc1ccc(/C=C2\Oc3ccc([125I])cc3C2=O)cc1 [[^125I]12] , state its recorded Biodistribution of radioactivity, Kidney.
Marked response: 9.91 (2.00) % injected dose per gram

Exam item: Given O=C1/C(=C/c2ccc(O)cc2)Oc2ccc([125I])cc21 [[^125I]20] , state its recorded Biodistribution of radioactivity, Kidney.
Marked response: 11.08 (2.96) % injected dose per gram
